% DAMGO (1 μM) values, listed per item
# System: mu opiate receptor (MOR)
# run description: MOR agonist activity using [35S]GTPγS binding assay in striatal membranes
# Type: biochemical
# experimental context: 1 μM compound relative to DAMGO

{"molecule": "CC1CCC(C(C)C)C(OCC(O)CN2CCC2)C1 (stereo not drawn)", "% DAMGO (1 μM) (%)": 56.2}
{"molecule": "CC1CCC(C(C)C)C(OCC(O)CN2CCCN(C)CC2)C1 (stereo not drawn)", "% DAMGO (1 μM) (%)": 119.5}
{"molecule": "COc1c2c(cc3c1OCO3)CCN(CC(O)COC1CC(C)CCC1C(C)C)C2 (stereo not drawn)", "% DAMGO (1 μM) (%)": 85.5}
{"molecule": "CC1CCC(C)C(OCC(O)CN2CC(C)OC(C)C2)C1 (stereo not drawn)", "% DAMGO (1 μM) (%)": 80.9}
{"molecule": "CC1CCC(C(C)C)C(OCC(O)CN2CCCC2=O)C1 (stereo not drawn)", "% DAMGO (1 μM) (%)": 57.5}
{"molecule": "CC1CN(CC(O)COc2cccc(N(C)C)c2)CC(C)O1 (stereo not drawn)", "% DAMGO (1 μM) (%)": 84.5}
{"molecule": "CC1CCC(C(C)C)C(OCC(O)CN2CCN(CCc3ccccc3)CC2)C1 (stereo not drawn)", "% DAMGO (1 μM) (%)": 88.7}
{"molecule": "CC1CCC(C(C)C)C(OCC(O)CN2CCN(C)CC2)C1 (stereo not drawn)", "% DAMGO (1 μM) (%)": 48.7}
{"molecule": "CC1CCC(C(C)C)C(OCC(O)CN2CCSCC2)C1 (stereo not drawn)", "% DAMGO (1 μM) (%)": 119.9}
